- Test system: Human immunodeficiency virus
- experiment: Antiviral activity against HIV NL-Lai infected in human TZM-bl cells assessed as inhibition of viral infection at 100 uM treated before viral infection measured after 24 hrs by luciferase assay
- Type: functional, organism-based
The source made the active and inactive calls. No cut-off for these calls is given here.
property: inhibition

# count of solved cases: 4
1) CCCCCCCCCCCCCCCC(=O)O[C@@H]1[C@H](O)[C@@H](O[C@@H]2O[C@H](CO)[C@H](O)[C@H](O)[C@H]2O)O[C@H](CO)[C@H]1O: Active
2) CCCCCCCCCCCCCCCC(=O)OC[C@H]1O[C@H](O[C@@H]2O[C@H](CO)[C@@H](O)[C@H](O)[C@H]2O)[C@@H](O)[C@@H](O)[C@@H]1O: Active
3) c1cc(CN2CCCNCCNCCCNCC2)ccc1CN1CCCNCCNCCCNCC1: Active
4) CCCCCCCCCCCCCCCC(=O)OC[C@H]1O[C@H](O[C@H]2O[C@H](CO)[C@H](O)[C@H](O)[C@H]2O)[C@@H](O)[C@@H](O)[C@@H]1O: Active

Consider the molecule shown here: CCCCCCCCCCCCCCCCO[C@@H]1O[C@H](CO)C(O)[C@H](O)[C@H]1O (single isomer, unassigned) What is its recorded inhibition?
Active

###

- experiment: Cytotoxicity against human TZM-bl cells up to 200 uM after 24 hrs by MTS assay
- Format: cell-based
property: Activity

1) CCCCCCCCCCCCCCCC(=O)OC[C@H]1O[C@H](O[C@@H]2O[C@H](CO)[C@@H](O)[C@H](O)[C@H]2O)[C@@H](O)[C@@H](O)[C@@H]1O: Non-toxic
2) CCCCCCCCCCCCCCCC(=O)OC[C@H]1O[C@H](OC)[C@@H](O)[C@@H](O)[C@@H]1O: Non-toxic
3) CCCCCCCCCCCCC/C=C/[C@@H](O)[C@H](CO[C@@H]1O[C@H](CO)[C@H](O)[C@H](O)[C@H]1O)NC(=O)C(O)CCCCCCCCCCCCCCCCCCCCCC (some centres undefined): Non-toxic
4) CCCCCCCCCCCCCCCC(=O)OC[C@H]1O[C@H](OC)[C@@H](O)[C@@H](O)[C@@H]1OC(=O)CCCCCCCCCCCCCCC: Non-toxic
5) CCCCCCCCCCCCCCCC(=O)OC[C@H]1O[C@H](O[C@H]2O[C@H](CO)[C@H](O)[C@H](O)[C@H]2O)[C@@H](O)[C@@H](O)[C@@H]1O: Non-toxic

Parameters: items (list). Returns: Activity for each item.
1. CCCCCCCCCCCCCCCC(=O)OC[C@H]1O[C@H](O[C@@H]2O[C@H](CO)[C@H](O)[C@H](O)[C@H]2O)[C@@H](O)[C@@H](O)[C@@H]1OC(=O)CCCCCCCCCCCCCCC
2. CCCCCCCCCCCCCCCC(=O)OC[C@H]1O[C@H](O[C@@H]2O[C@H](CO)[C@H](O)[C@H](O)[C@H]2O)[C@@H](O)[C@@H](O)[C@@H]1O
3. CCCCCCCCCCCCCCCCO[C@@H]1O[C@H](CO)C(O)[C@H](O)[C@H]1O (single isomer, unassigned)
4. CCCCCCCCCCCCCCCC(=O)O[C@@H]1[C@H](O)[C@@H](O[C@@H]2O[C@H](CO)[C@H](O)[C@H](O)[C@H]2O)O[C@H](CO)[C@H]1O

1. Non-toxic
2. Non-toxic
3. Non-toxic
4. Non-toxic

###

Please respond with reported CMC for every item in the list.
- experiment: Critical micelle concentration of the compound
- Type: physicochemical
Numbers only, in µM.

Examples with answers:
1. CCCCCCCCCCCCCCCC(=O)OC[C@H]1O[C@H](O[C@@H]2O[C@H](CO)[C@@H](O)[C@H](O)[C@H]2O)[C@@H](O)[C@@H](O)[C@@H]1O: 10
2. CCCCCCCCCCCCCCCC(=O)O[C@@H]1[C@H](O)[C@@H](O[C@@H]2O[C@H](CO)[C@H](O)[C@H](O)[C@H]2O)O[C@H](CO)[C@H]1O: 12

The following molecules each have a reported value; give each one's CMC.
1. CCCCCCCCCCCCCCCC(=O)OC[C@H]1O[C@H](OC)[C@@H](O)[C@@H](O)[C@@H]1O
2. CCCCCCCCCCCCCCCC(=O)OC[C@H]1O[C@H](O[C@@H]2O[C@H](CO)[C@H](O)[C@H](O)[C@H]2O)[C@@H](O)[C@@H](O)[C@@H]1O

13
9.8
